# Lookup of reported Degradation assay (Degradation %) 1 μM keyed by entry
Molecular target: MLKL (Homo sapiens)
Sequence (Q8NB16 1-471): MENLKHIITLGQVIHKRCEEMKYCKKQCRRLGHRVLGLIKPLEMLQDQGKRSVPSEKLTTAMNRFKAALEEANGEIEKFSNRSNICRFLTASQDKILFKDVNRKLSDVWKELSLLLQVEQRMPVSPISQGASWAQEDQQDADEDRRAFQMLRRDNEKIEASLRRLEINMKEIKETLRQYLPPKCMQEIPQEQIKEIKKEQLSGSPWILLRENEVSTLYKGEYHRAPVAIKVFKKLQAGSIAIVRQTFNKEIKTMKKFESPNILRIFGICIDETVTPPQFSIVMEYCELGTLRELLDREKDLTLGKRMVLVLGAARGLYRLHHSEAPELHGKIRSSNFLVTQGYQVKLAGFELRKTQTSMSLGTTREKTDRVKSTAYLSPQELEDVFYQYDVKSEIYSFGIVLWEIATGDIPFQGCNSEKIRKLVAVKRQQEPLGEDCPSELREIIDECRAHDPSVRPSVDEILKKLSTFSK
Assay: MLKL degradation assay in HepG2 cell line (western blot)
Format: cell-based
Set-up: endogenous in cells; host or cells: HepG2 or HaCaT
Details: compound 1 μM; cell line not given
Description: MLKL degradation ability was evaluated in the following method. […] For protein preparation after incubation, cells were washed with 1×TBST, and 60 μL of RIPA lysis buffer containing Halt™ Protease and Phosphatase Inhibitor Cocktail was dispensed into each well. […] For protein quantification, after dispensing sample and BCA (0-4 mg/ml) in a 96 well plate, 100 μL of BCA was dispensed and reacted in a 37° C. incubator for 30 minutes. […]
# value in %; strip the unit string

Known Degradation assay (Degradation %) 1 μM results, listed for orientation:
Nc1ncc(-c2cnn(C3CCN(CCC4CCN(C(=O)COc5ccc6c(c5)C(=O)N(C5CCC(=O)NC5=O)C6=O)CC4)CC3)c2)nc1C(=O)O[C@@H](C(=O)Nc1ccc(F)cc1)c1ccccc1 (some centres unmarked) [TDH-201] ... 85.96
Nc1ncc(-c2cnn(C3CCN(CCC4CCN(C(=O)C5CN(C6=CC(=O)N(C7CCC(=O)NC7=O)C6=O)C5)CC4)CC3)c2)nc1C(=O)O[C@@H](C(=O)Nc1ccc(F)cc1)c1ccccc1 (some centres unmarked) [TDH-531] ... 67.64
Nc1ncc(-c2cnn(C3CCN(CCC4CCN(C(=O)c5ccc6c(N7CCC(=O)NC7=O)coc6c5)CC4)CC3)c2)nc1C(=O)O[C@@H](C(=O)Nc1ccc(F)cc1)c1ccccc1 [TDH-552] ... 92.21
Nc1ncc(-c2cnn(C3CCN(CCCN4CCN(C(=O)COc5ccc6c(c5)C(=O)N(C5CCC(=O)NC5=O)C6=O)CC4)CC3)c2)nc1C(=O)O[C@@H](C(=O)Nc1ccc(F)cc1)c1ccccc1 (some centres unmarked) [TDH-358] ... 91.6

q: What does the data say about its Degradation assay (Degradation %) 1 μM? Entry: Nc1ncc(-c2cnn(C3CCN(CCC4CCN(C(=O)c5ccc(C(=O)NC6CCC(=O)NC6=O)cc5)CC4)CC3)c2)nc1C(=O)O[C@@H](C(=O)Nc1ccc(F)cc1)c1ccccc1 (some centres unmarked) [TDH-536]
a: 46.11

Data origin: patent US20240252488A1
